experiment: Cmax in rat at 1 mg/kg, po; format: ADME, organism-based; parameters: dose 1 mg/kg, route oral; conditions: in vivo
ASSAY_METRIC: Cmax (ng/mL)
// units = ng/mL; emit number, no label

// lookup Cmax for `CN1CCN(c2cc(-c3ccc(C#N)cc3)nc(N)n2)CC1` 32

---

test: Tmax in rat at 10 mg/kg, po; format: ADME, organism-based; parameters: dose 10 mg/kg, route oral; details: in vivo
ASSAY_METRIC: Tmax (min)
Just the number please, in min, no unit attached.

Could you share which Tmax value was measured for CN1CCN(C(=O)c2cc3cc(Cl)ccc3[nH]2)CC1 [JNJ-7777120] ? 15

---

experiment: Cmax in mouse at 2.5 mg/kg, po; assay type: ADME, organism-based; design: dose 2.5 mg/kg, route oral; details: in vivo
ASSAY_METRIC: Cmax (ng/mL)
Kindly provide the numeric value in ng/mL only, without the unit symbol.

Requested field: Cmax. Item: `CN1CCN(c2cc(-c3ccc(C#N)cc3)nc(N)n2)CC1` 92

---

molecules and their reported EC50
target: Histamine H4 receptor (Rattus norvegicus, UniProt Q91ZY1); assay: Agonist activity at rat histamine H4 receptor expressed in HEK293 cells coexpressing Gqi5 protein assessed as calcium flux by FLIPR assay; assay type: functional, cell-based
Sequence (Q91ZY1 whole entry): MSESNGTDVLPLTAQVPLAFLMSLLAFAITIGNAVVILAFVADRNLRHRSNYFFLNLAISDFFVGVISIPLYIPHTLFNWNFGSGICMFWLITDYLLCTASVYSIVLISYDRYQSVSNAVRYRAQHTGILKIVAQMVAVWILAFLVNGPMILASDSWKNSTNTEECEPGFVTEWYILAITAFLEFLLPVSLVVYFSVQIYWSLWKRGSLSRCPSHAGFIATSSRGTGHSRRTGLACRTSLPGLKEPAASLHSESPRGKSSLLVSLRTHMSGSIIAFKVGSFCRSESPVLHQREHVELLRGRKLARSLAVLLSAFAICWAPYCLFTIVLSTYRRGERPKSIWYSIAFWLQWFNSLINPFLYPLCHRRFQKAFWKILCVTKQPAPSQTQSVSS
Report as: number unit

Return reported EC50; argument: `CN1CCN(c2cc(Cl)nc(N)n2)CC1` 17 µM

Next up: `CN1CCN(c2cc(N3CCNC3=O)nc(N)n2)CC1` 12.3 µM

How about this molecule: `CCN(CC)c1cc(N2CCN(C)CC2)nc(N)n1` 0.355 µM

---

biological target: Histamine H4 receptor (Homo sapiens); settings: HEK293
Sequence (Q9H3N8 whole entry): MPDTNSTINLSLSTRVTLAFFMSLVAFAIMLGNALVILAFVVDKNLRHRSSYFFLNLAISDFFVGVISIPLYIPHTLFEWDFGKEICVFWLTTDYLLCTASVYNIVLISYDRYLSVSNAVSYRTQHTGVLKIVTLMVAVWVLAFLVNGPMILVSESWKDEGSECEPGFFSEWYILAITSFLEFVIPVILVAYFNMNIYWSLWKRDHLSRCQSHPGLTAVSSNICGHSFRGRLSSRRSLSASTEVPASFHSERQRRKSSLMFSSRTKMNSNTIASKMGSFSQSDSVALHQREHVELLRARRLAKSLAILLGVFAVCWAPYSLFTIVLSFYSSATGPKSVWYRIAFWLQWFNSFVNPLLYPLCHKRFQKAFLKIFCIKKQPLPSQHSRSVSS
ASSAY_METRIC: pKb
Respond numerically, and do not add a unit to the figure.

CPD_SMILES	ASSAY_METRIC	NUMERIC_VALUE
CN1CCN(c2cc(C34CC5CC(CC(C5)C3)C4)nc(N)n2)CC1	pKb	7.59
CN1CCN(c2cc(-c3ccc(I)cc3)nc(N)n2)CC1	pKb	7.83

Tell me reported pKb for `CN(C)CCOc1cc(C(C)(C)C)nc(N)n1` , tested with Histamine H4 receptor (Homo sapiens). 7.02

And for `COc1ccncc1-c1cc(N2CCN(C)CC2)nc(N)n1` ? 7.39

Okay, and `CN(C)CCN(C)c1cc(C(C)(C)C)nc(N)n1` ? 5.71

Further, for `COc1cccc(OC)c1-c1cc(N2CCN(C)CC2)nc(N)n1` ? 6.81

Moving on to `COc1cnc(N)nc1N1CCN(C)CC1` 6.9

---

Entries and their pKb values follow.
biological target: UniProt:Q9H3N8; conditions: HEK293
Please reply with the number alone, leaving off any unit.

Worked set:
COMPOUND	TARGET_OF_ASSAY	ASSAY_METRIC	NUMERIC_VALUE
CN1CCN(c2cc(N3CCCCC3)nc(N)n2)CC1	UniProt:Q9H3N8	pKb	8.05
CN1CCN(c2cc(Cl)nc(N)n2)CC1	UniProt:Q9H3N8	pKb	4.75

Give the measured pKb of CN1CCN(c2cc(N3CCC(N(C)C)C3)nc(N)n2)CC1 (configuration not stated) . 5.76

Item: `Cc1c(-c2ccc(C#N)cc2)nc(N)nc1N1CCN(C)CC1` 7.36

What do you get for `CC1CCN(c2cc(C(C)(C)C)nc(N)n2)CC1` ? 5.2

# repeat for `CN(C)CCCN(C)c1cc(C(C)(C)C)nc(N)n1` 5.13

`CC(C)(C)c1cc(N2CCNCC2)nc(-n2cccc2)n1` , same question. 6.75

---

assay: Drug level in rat brain at 30 umol/kg, ip after 30 mins; assay type: ADME, organism-based; settings: read-out: Drug uptake
ASSAY_METRIC: concentration at 0.5 h (ng/g)
Respond numerically; units are ng/g and should not be typed.

For `CN1CCN(c2cc(-c3ccc(C#N)cc3)nc(N)n2)CC1` , what is its reported concentration at 0.5 h? 12100

---

target: Histamine H4 receptor (Rattus norvegicus) (UniProt Q91ZY1); conditions: HEK293
Sequence (Q91ZY1 whole entry): as the sequence (Q91ZY1 whole entry) above
Label yes when pKb >= 6; otherwise no.

Please review the entries below; each comes with its answer.
CPD_SMILES	ASSIGNED_CATEGORY
CN1CCN(c2cc(-n3cnc(-c4ccccc4)c3)nc(N)n2)CC1	no
N#Cc1ccc(-c2cc(N3CCN(CC4CC4)CC3)nc(N)n2)cc1	no
CN1CCN(c2cc(-n3cnc4ccccc43)nc(N)n2)CC1	yes
CN1CCN(c2cc(-c3cccc(-c4ccccc4)c3)nc(N)n2)CC1	yes
CN1CCN(c2cc(-c3cccc4ccccc34)nc(N)n2)CC1	yes
CN1CCN(c2nc(N)nc(-c3ccc(C#N)cc3)c2-c2ccccc2)CC1	no

Tell me whether pKb is at least 6 here: `CN1CCN(c2cc(N(C)Cc3ccccc3)nc(N)n2)CC1` yes

Now consider `CN1CCN(c2cc(N)cc(-c3ccc(C#N)cc3)n2)CC1` . no

Further, for `CN1CCN(c2cc(-c3ccccc3-c3ccccc3)nc(N)n2)CC1` ? no

---

Quick reference for pEC50 among some compounds
target: UniProt:Q91ZY2; assay: Agonist activity at mouse histamine H4 receptor expressed in HEK293 cells coexpressing Gqi5 protein assessed as calcium flux by FLIPR assay
Sequence (Q91ZY2 whole entry): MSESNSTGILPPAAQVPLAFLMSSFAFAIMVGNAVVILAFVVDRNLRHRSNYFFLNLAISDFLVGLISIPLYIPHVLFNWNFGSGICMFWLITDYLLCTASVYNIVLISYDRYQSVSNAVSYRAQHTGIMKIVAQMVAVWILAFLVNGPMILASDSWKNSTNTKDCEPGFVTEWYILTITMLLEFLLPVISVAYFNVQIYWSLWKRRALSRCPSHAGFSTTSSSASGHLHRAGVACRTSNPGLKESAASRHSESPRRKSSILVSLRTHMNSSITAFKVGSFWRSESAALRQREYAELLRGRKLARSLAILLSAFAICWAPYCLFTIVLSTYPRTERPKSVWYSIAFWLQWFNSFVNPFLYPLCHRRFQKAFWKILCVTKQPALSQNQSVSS
On this scale, pEC50 is minus log10 of a concentration expressed in M (mol/L).

CPD_SMILES	pEC50
N#Cc1ccc(-c2cc(N3CCNCC3)nc(N)n2)cc1	6.99

The record that follows has no pEC50 shown yet.
Returns the measured pEC50 for the input compound. Input: `CN1CCN(c2cc(-c3ccc(C#N)cc3)nc(N)n2)CC1` 6.91

---

test: Binding affinity to cyclooxygenase
ASSAY_METRIC: IC50

Recorded IC50 for `CN1CCN(c2cc(-c3ccc(C#N)cc3)nc(N)n2)CC1` , please? > 100 µM

---

test: Half life in mouse at 20 mg/kg, po; assay type: ADME, organism-based; set-up: dose 20 mg/kg, route oral; conditions: in vivo
ASSAY_METRIC: half-life (h)
Please state the figure in h; there is no need to write the unit.

Need half-life of `CN1CCN(C(=O)c2cc3cc(Cl)ccc3[nH]2)CC1` , thanks. 1.4

---

biological target: Histamine H4 receptor (Rattus norvegicus, UniProt Q91ZY1); assay: Agonist activity at rat histamine H4 receptor expressed in HEK293 cells coexpressing Gqi5 protein by GTPgammaS assay; format: functional, cell-based
ASSAY_METRIC: pEC50
Please keep in mind that pEC50 is minus log10 of the molar concentration; only the number is needed.

What reported pEC50 corresponds to `CN1CCN(c2cc(-c3ccc(C#N)cc3)nc(N)n2)CC1` on Histamine H4 receptor (Rattus norvegicus, UniProt Q91ZY1)? 5.33

---

assay: Bioavailability in rat at 1 mg/kg, po; type: ADME, organism-based; conditions: in vivo
ASSAY_METRIC: bioavailability

// bioavailability lookup, key: `CN1CCN(c2cc(-c3ccc(C#N)cc3)nc(N)n2)CC1` 31%

---

target: 5-hydroxytryptamine receptor 1A (Homo sapiens)
Sequence (P08908 whole entry): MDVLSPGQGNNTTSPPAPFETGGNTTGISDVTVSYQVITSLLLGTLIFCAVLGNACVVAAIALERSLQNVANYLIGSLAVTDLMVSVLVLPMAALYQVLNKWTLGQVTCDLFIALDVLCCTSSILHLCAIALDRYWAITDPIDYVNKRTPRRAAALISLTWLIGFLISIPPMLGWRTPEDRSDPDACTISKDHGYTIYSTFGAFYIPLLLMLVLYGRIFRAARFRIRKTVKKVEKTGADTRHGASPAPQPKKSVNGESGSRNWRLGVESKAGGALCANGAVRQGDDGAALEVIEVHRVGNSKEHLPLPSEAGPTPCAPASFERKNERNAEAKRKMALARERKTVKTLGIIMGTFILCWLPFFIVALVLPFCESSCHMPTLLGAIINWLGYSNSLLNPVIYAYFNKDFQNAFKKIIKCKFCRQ
ASSAY_METRIC: Ki (nM)
Answer with a number only, understood to be in nM.

Entry `CN1CCN(c2cc(-c3ccc(C#N)cc3)nc(N)n2)CC1` has what Ki? 42

---

biological target: Histamine H4 receptor (Rattus norvegicus); test: Agonist activity at rat histamine H4 receptor expressed in HEK293 cells coexpressing Gqi5 protein assessed as calcium flux by FLIPR assay relative to histamine; type: functional, cell-based
API: label(entry) gives 1.0 if the entry's Efficacy is strictly smaller than 70%; on equality or larger values it gives 0.0.

Lab note: confirm whether the reported Efficacy for this compound is below 70%, equality not counting. compound: `CN1CCN(c2cc(-c3cccc(I)c3)nc(N)n2)CC1` 1.0

Could you do the same for `Cc1ccc(-c2cc(N3CCN(C)CC3)nc(N)n2)cc1` , please? 0.0

Field entry: `CCN(CC)c1cc(N2CCN(C)CC2)nc(N)n1` 0.0

Can you check `COc1nc(N2CCN(C)CC2)cc(C(C)(C)C)n1` next? 0.0

And then `CN1CCN(c2cc(-c3cncnc3)nc(N)n2)CC1` , what is it? 1.0

---

assay: Binding affinity to opioid receptor
pIC50: −log10 of the molar value.
ASSAY_METRIC: pIC50

Suppose we examine the compound `CN1CCN(c2cc(-c3ccc(C#N)cc3)nc(N)n2)CC1` ; what pIC50 value has been reported? < 5.00

---

biological target: 5-hydroxytryptamine receptor 2A (Homo sapiens, UniProt P28223)
Sequence (P28223 whole entry): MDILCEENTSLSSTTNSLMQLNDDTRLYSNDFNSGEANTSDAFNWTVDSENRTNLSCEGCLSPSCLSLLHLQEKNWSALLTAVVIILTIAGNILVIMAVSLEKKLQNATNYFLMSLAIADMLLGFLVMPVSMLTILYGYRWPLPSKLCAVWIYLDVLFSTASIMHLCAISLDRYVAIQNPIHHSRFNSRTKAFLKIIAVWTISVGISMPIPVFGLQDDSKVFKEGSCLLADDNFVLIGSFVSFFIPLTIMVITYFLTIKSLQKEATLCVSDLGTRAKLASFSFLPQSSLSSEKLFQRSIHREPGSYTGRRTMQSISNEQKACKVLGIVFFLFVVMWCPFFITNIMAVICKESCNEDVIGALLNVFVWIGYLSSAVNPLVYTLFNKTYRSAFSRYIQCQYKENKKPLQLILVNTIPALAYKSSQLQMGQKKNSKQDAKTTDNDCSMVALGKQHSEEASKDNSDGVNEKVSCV
ASSAY_METRIC: Ki (µM)
Number in µM, nothing else.

Reported Ki, molecule `CN1CCN(c2cc(-c3ccc(C#N)cc3)nc(N)n2)CC1` : ____ 4.1

---

biological target: Histamine H4 receptor (Rattus norvegicus); assay: Agonist activity at rat histamine H4 receptor expressed in HEK293 cells coexpressing Gqi5 protein assessed as calcium flux by FLIPR assay relative to histamine; type: functional, cell-based
ASSAY_METRIC: Efficacy (%)
Give the value, in units of %, as a plain number.

Some entries whose results are on file:
MOLECULE	VALUE_UNIT	NUMERIC_VALUE
CN1CCN(c2cc(C34CC5CC(CC(C5)C3)C4)nc(N)n2)CC1	%	61
COc1ccc(-c2cc(N3CCN(C)CC3)nc(N)n2)cc1	%	71
CN1CCN(c2cc(-c3ccc(I)cc3)nc(N)n2)CC1	%	58
CN1CCN(c2cc(N3CCOCC3)nc(N)n2)CC1	%	87
CN1CCN(c2cc(-c3ccc(F)nc3F)nc(N)n2)CC1	%	82

Which measured Efficacy value corresponds to `CN1CCN(c2cc(N3CCNC3=O)nc(N)n2)CC1` ? 27

How about `CN1CCN(c2cc(-c3cnn(C)c3)nc(N)n2)CC1` ? 78

Same question, `CN(C)CCN1CCN(c2cc(C(C)(C)C)nc(N)n2)CC1` this time 66

Same lookup for `COc1ncc(-c2cc(N3CCN(C)CC3)nc(N)n2)cn1` , please. 53

Try `Cc1cc(N2CCN(C)CC2)nc(N)n1` next. 77

Then this molecule: `CN1CCN(c2cc(C(C)(C)C)nc(Cl)n2)CC1` 75

Now give it for `CN(C)CCN(C)c1cc(C(C)(C)C)nc(N)n1` too. 55
